Hey, just so you know, these numbers are from patent US9108921B2.

target or system: PKR R532W (Homo sapiens, UniProt P30613, R532W)
Sequence (P30613 whole entry R532W): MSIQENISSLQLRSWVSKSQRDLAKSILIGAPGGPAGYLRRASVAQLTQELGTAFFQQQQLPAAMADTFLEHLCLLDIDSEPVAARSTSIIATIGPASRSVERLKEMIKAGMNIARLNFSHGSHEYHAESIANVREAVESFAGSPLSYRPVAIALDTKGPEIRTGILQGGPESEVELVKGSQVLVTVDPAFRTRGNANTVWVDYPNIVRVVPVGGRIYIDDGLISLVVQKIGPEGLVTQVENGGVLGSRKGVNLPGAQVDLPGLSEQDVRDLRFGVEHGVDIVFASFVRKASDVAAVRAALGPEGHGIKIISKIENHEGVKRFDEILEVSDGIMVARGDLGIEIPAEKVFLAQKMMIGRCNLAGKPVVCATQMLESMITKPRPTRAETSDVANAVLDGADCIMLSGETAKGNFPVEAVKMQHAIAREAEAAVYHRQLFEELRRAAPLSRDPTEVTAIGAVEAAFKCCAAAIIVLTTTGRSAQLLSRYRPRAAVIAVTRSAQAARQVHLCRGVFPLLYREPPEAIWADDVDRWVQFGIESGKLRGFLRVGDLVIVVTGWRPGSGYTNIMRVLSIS
experimental protocol: PKR Mutant Assay, AC50 against PKR R532W
Format: biochemical
recorded conditions: mutant PKR R532W enzyme
Experimental: • PKR or PKR mutant enzyme solution was diluted in assay buffer. • 2 μL of test compound was added into wells first, and then 180 μL reaction mix was added. • Reactions mixture with test compound was assembled except for ADP, and plates were stored for 60 minutes at room temperature. • 20 uL ADP was added to start reaction at room temperature and reaction progress was measured as changes in absorbance at 340 nm wavelength at room temperature. […]
recorded metric: AC50

// field: AC50; key: O=C(c1ccc(NS(=O)(=O)c2cccc3cccnc23)cc1)N1CCC(O)(c2ncccc2C(F)(F)F)CC1 ; value = < 100 nM

// field: AC50; key: CC(C)CC1(O)CCN(C(=O)c2ccc(NS(=O)(=O)c3ccc(F)c4scnc34)cc2)CC1 [Compound 372] ; value = 101 to 1000 nM

// field: AC50; key: CC(C)CC1(O)CCN(C(=O)c2ccc(NS(=O)(=O)c3c(F)ccc4ncsc34)cc2)CC1 ; value = 1010 to 10000 nM

// field: AC50; key: CC(C)(O)CCC1(O)CCN(C(=O)c2ccc(NS(=O)(=O)c3cccc4cccnc34)cc2)CC1 ; value = 1010 to 10000 nM

// field: AC50; key: O=C(c1ccc(NS(=O)(=O)c2cccc3ccnnc23)cc1)N1CCC(O)(c2ccccc2Cl)CC1 ; value = > 10000 nM

// field: AC50; key: O=C(c1ccc(NS(=O)(=O)c2cccc3cccnc23)cc1F)N1CCC(O)(c2ccccc2Cl)CC1 ; value = < 100 nM

// field: AC50; key: CC(C)CC1(O)CCN(C(=O)c2ccc(NS(=O)(=O)c3cnc(O)c4cccnc34)cc2)CC1 ; value = > 10000 nM

// field: AC50; key: CC1(CC2(O)CCN(C(=O)c3ccc(NS(=O)(=O)c4cccc5scnc45)cc3)CC2)CC1 ; value = < 100 nM

----------
target or system: PKR R532W (Homo sapiens, UniProt P30613, R532W)
experimental protocol: PKR Mutant Assay, AC50 against PKR R532W
Assay type: biochemical
recorded conditions: mutant PKR R532W enzyme
recorded metric: AC50

// field: AC50; key: O=C(c1ccc(NS(=O)(=O)c2cccc3cccnc23)cc1)N1CCC(O)(C2CC2)CC1 ; value = 101 to 1000 nM

// field: AC50; key: Nc1nc2cc(S(=O)(=O)Nc3ccc(C(=O)N4CCC(O)(c5ccccc5Cl)CC4)cc3)c(F)cc2s1 ; value = > 10000 nM

// field: AC50; key: CC(C)(C)CC1(O)CCN(C(=O)c2ccc(NS(=O)(=O)c3cccc4cccnc34)cc2)CC1 ; value = < 100 nM

// field: AC50; key: CC(C)CC1(O)CCN(C(=O)c2ccc(NS(=O)(=O)c3cccc4[nH]c(=O)cnc34)cc2)CC1 ; value = 1010 to 10000 nM

// field: AC50; key: O=C(c1ccc(NS(=O)(=O)c2cccc3cccnc23)cc1)N1CCC(O)(c2ccc(F)cc2Cl)CC1 ; value = < 100 nM

// field: AC50; key: O=C(c1ccc(NS(=O)(=O)c2cccc3nccnc23)c(F)c1)N1CCC(O)(c2cccc(F)c2F)CC1 ; value = 101 to 1000 nM

// field: AC50; key: O=C(c1ccc(NS(=O)(=O)c2cccc3cccnc23)cc1)N1CCC(O)(c2ccccc2F)CC1 ; value = < 100 nM

// field: AC50; key: COc1cc(NS(=O)(=O)c2cccc3cccnc23)ccc1C(=O)N1CCC(O)(Cc2ccccc2)CC1 ; value = < 100 nM

// field: AC50; key: O=C(c1ccc(NS(=O)(=O)c2cccc3cccnc23)cc1)N1CCC(O)(c2cccc(C(F)(F)F)n2)CC1 ; value = < 100 nM

// field: AC50; key: O=C(c1ccc(NS(=O)(=O)c2cccc3cccnc23)cc1)N1CCC(O)(CN2CCCC2)CC1 ; value = 1010 to 10000 nM

// field: AC50; key: O=C(c1ccc(NS(=O)(=O)c2cccc3snnc23)cc1)N1CCC(O)(c2ccccc2Cl)CC1 ; value = 1010 to 10000 nM

// field: AC50; key: O=C(c1ccc(NS(=O)(=O)c2cccc3cccnc23)cc1)N1CCC(O)(c2cnsc2)CC1 [Compound 377] ; value = < 100 nM

// field: AC50; key: COc1cccc(C2(O)CCN(C(=O)c3ccc(NS(=O)(=O)c4cccc5cccnc45)cc3)CC2)c1 ; value = 101 to 1000 nM

// field: AC50; key: O=C(c1cc(F)c(NS(=O)(=O)c2cccc3cccnc23)cc1F)N1CCC(O)(c2ccccc2)CC1 ; value = 101 to 1000 nM

// field: AC50; key: O=C(c1ccc(NS(=O)(=O)c2cccc3cccnc23)cc1)N1CCC(O)(c2cnsc2)CC1 [Compound 180] ; value = < 100 nM

// field: AC50; key: O=C(c1ccc(NS(=O)(=O)c2cccc3cccnc23)cc1)N1CCC(O)(c2ccccc2OC(F)(F)F)CC1 ; value = < 100 nM

// field: AC50; key: O=C(c1ccc(NS(=O)(=O)c2cccc3scnc23)cc1)N1CCC(O)(CCC(F)F)CC1 ; value = 101 to 1000 nM

// field: AC50; key: O=C(c1ccc(NS(=O)(=O)c2cccc3cccnc23)cc1)N1CCC(O)(c2ccccc2C(F)(F)F)CC1 ; value = < 100 nM

// field: AC50; key: O=C(c1ccc(NS(=O)(=O)c2ccc(F)c3scnc23)cc1)N1CCC(O)(c2ccccc2Cl)CC1 [Compound 378] ; value = 101 to 1000 nM
